Target: glycoprotein B of HSV-1 (gB-1) (Human herpesvirus 1, UniProt P10211)
Test: Luminex multiplex assay, binding to gB-1
Conditions: Table 3 summary
outcome-measure: Target antigens

molecule="HSV010-28: gB-1 specific mouse monoclonal IgG; IgH SEQ ID NO: 60, IgL SEQ ID NO: 62 (antibody, V domains shown, HSV010-28 heavy chain; HSV010-28 light chain) VH: QIQLVQSGPELKKPGETVKISCKASGYTFTTYGMSWVKQAPGKGLKWMGWINTYSGVSTYADDFKGRFAFSLETSASTAYLQINNLKNEDTATYFCAQVNYAMDYWGQGTSVTVSSA VL: DIVMTQSHKFLSTSVGDWVTITCKASQDVSTAVAWFQQKPGQSPKVLIYSASYRYTGVPDRFTGSGSGTDFTFTISSVQAEDLAVYYCQQHYSTPRTFGGGTKLEIKR" outcome_measure="Target antigens" experimental_value=gB
molecule="HSV010-8: gB-1 specific mouse monoclonal IgG; IgH SEQ ID NO: 68, IgL SEQ ID NO: 70 (antibody, V domains shown, HSV010-8 heavy chain; HSV010-8 light chain) VH: QVQLKESGPGLVAPSQSLSITCTVSGFSLNNYDVSWVRQPPGKGLEWLGVIWGDGSTNYHSALISRLSISKDNSKSQVFLKLNSLQTDDTATYYCAKEDYGIFPYWGQGTLVTVSAA VL: DIKMTQSPSSMYASLGERVTITCKASQDINSYLSWFQQKPGKSPKTLIYRANRLVDGVPSRFSGSGSGQDYSLTISSLEYENMGIYYCLQYDEFPLTFGAGTKLELKR" outcome_measure="Target antigens" experimental_value=gB
molecule="HSV010-9: gB-1 specific mouse monoclonal IgG; IgH SEQ ID NO: 48, IgL SEQ ID NO: 50 (antibody, V domains shown, HSV010-9 heavy chain; HSV010-9 light chain) VH: QVQLQQPGAELVKPGASVKLSCKSSGYTFTSYWMHWVKQRPGQGLEWIGMIHPNSGITHYNEKFKTKATLTVDKSSSTAYMQLSSLTSEDSAVSYCARGSNSGSAWFAYWGQGTLVTVSAA VL: DIQMTQSSSYLSVSLGGRVTITCKASDHINNWLAWYQQKPGNAPRLLISGATSLETGVPSRFSGSGSGKDYTLSITSLQTEDVATYYCQQYWSTPLTFGAGTKLELKR" outcome_measure="Target antigens" experimental_value=gB
